- Protocol details: Volume of distribution at steady state in Kunming mouse plasma at 2 mg/kg, iv measured upto 24 hrs by LC-MS/MS method
- Assay type: ADME, organism-based
- Assay conditions: in vivo
Recorded endpoint: Vdss (L/kg)
Answers are plain numbers, in L/kg.

Ask: Fill in reported Vdss for this entry: C#CCN(Cc1ccc(F)cc1)c1cc(C)c(NC(=O)OC)c(C)c1
Result: 2.89

----------
- Protocol details: Drug concentration in Kunming mouse brain at 5 mg/kg
- Format: ADME, organism-based
- Assay conditions: in vivo, read-out: Ct
Recorded endpoint: concentration
Please make sure the unit comes right after the number.

Ask: Indicate the recorded concentration value for this molecule: C#CCN(Cc1ccc(F)cc1)c1cc(C)c(NC(=O)OC)c(C)c1
Result: 120 nM

----------
- Protocol details: Metabolic stability in rat liver microsomes assessed as intrinsic clearance
- Assay type: ADME, Microsome
- Assay conditions: read-out: CLH
Recorded endpoint: CLint scaled (mL/min/kg)
Give bare numbers, in mL/min/kg.

Ask: Report CLint scaled, nothing else, for this compound: C#CCN(Cc1ccc(F)cc1)c1cc(C)c(NC(=O)OC)c(C)c1
Result: 105

----------
- Target or system: Cytochrome P450 1A2 (Homo sapiens, UniProt P05177)
- Sequence (P05177 whole entry): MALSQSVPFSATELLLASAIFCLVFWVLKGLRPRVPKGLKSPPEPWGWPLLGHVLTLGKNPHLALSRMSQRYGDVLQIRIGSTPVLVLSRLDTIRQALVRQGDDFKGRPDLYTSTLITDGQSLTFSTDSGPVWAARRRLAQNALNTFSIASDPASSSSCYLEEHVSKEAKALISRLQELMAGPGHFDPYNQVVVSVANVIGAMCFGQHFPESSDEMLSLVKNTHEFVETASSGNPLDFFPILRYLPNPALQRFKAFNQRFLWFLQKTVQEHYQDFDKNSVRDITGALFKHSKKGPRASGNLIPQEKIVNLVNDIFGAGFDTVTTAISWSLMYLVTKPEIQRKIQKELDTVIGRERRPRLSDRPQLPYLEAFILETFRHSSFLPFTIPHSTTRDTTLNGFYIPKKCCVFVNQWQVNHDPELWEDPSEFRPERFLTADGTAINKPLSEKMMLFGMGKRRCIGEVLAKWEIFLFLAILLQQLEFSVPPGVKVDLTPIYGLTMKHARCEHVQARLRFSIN
- Protocol details: Time dependent inhibition of human liver microsome CYP1A2 preincubated for 0.5 hrs in absence of NADPH followed by substrate addition by LC-MS/MS method
- Assay type: ADME, microsomes
Recorded endpoint: pIC50
One number for each entry, as −log10 of the molar value.

Ask: // Input: C#CCN(Cc1ccc(F)cc1)c1cc(C)c(NC(=O)OC)c(C)c1 . Output its pIC50 only.
Result: 3.85

----------
- Protocol details: Half life in Kunming mouse brain at 5 mg/kg, po measured upto 24 hrs by LC-MS/MS method
- Assay type: ADME, organism-based
Recorded endpoint: half-life (h)
Answers are plain numbers, in h.

Ask: Give half-life for the following molecule: C#CCN(Cc1ccc(F)cc1)c1cc(C)c(NC(=O)OC)c(C)c1
Result: 1.95

----------
- Target or system: Cytochrome P450 2C8 (Homo sapiens, UniProt P10632)
- Sequence (P10632 whole entry): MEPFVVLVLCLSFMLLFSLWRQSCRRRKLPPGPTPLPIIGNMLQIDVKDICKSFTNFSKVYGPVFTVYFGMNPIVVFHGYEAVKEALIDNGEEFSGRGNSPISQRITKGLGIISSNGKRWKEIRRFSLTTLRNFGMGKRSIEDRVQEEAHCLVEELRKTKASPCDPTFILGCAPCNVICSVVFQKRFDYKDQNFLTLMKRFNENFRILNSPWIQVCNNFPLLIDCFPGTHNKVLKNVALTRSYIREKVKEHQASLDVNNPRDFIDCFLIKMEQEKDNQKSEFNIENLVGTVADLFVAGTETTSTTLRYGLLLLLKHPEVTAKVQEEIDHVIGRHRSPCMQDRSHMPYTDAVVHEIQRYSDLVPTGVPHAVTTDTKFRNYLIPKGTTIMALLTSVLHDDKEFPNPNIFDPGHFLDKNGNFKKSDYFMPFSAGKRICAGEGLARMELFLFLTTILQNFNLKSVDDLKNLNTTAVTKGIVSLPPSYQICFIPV
- Protocol details: Time dependent inhibition of human liver microsome CYP2C8 preincubated for 0.5 hrs in absence of NADPH followed by substrate addition by LC-MS/MS method
- Format: ADME, microsomes
Recorded endpoint: IC50 (µM)
Numbers only, in µM.

Ask: Please report IC50 with Cytochrome P450 2C8 (Homo sapiens, UniProt P10632) for item C#CCN(Cc1ccc(F)cc1)c1cc(C)c(NC(=O)OC)c(C)c1 .
Result: 225

----------
- Target or system: CYP3A4 (Homo sapiens, UniProt P08684)
- Sequence (P08684 whole entry): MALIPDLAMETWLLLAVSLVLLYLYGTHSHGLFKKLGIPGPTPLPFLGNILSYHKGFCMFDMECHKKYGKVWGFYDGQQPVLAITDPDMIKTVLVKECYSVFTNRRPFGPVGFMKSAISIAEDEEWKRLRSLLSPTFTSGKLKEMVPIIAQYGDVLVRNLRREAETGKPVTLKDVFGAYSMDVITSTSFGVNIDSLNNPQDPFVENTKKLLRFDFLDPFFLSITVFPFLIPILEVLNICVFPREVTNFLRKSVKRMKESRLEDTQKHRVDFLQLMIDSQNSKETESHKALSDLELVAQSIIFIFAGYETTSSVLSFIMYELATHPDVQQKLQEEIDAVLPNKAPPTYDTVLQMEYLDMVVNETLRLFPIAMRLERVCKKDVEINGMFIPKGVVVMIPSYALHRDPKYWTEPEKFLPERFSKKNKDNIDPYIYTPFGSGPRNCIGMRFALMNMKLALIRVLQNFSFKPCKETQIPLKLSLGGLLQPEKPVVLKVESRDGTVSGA
- Protocol details: Inhibition of human liver microsome CYP3A4 at 0.10 to 50 uM preincubated with NADPH for 0.5 hrs followed by substrate addition by LC-MS/MS method relative to control
- Format: ADME
- Assay conditions: liver microsomes, dose 0.1-50 µM
Recorded endpoint: inhibition at 0.5 h, up to 50 µM

Ask: Give inhibition at 0.5 h, up to 50 µM for the following molecule: C#CCN(Cc1ccc(F)cc1)c1cc(C)c(NC(=O)OC)c(C)c1
Result: < 25%

----------
- Target or system: CYP2D6 (Homo sapiens)
- Sequence (P10635 whole entry): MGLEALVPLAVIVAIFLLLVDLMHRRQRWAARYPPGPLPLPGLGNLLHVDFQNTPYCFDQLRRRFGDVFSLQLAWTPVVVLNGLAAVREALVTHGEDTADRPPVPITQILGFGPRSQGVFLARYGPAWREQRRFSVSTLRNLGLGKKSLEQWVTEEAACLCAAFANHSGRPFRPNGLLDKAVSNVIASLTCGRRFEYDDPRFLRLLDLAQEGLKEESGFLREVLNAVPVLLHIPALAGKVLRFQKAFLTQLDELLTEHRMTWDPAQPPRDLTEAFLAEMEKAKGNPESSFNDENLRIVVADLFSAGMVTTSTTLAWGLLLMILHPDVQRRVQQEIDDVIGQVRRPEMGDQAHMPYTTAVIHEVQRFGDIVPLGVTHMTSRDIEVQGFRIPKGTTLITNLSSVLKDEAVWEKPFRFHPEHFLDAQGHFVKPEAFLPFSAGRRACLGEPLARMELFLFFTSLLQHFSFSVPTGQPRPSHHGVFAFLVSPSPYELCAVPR
- Protocol details: Ratio of IC50 for human liver microsome CYP2D6 in absence of NADPH to IC50 for human liver microsome CYP2D6 in presence of NADPH
- Assay conditions: liver microsomes, read-out: Ratio IC50
Recorded endpoint: IC50 shift

Ask: Name the recorded IC50 shift of the item C#CCN(Cc1ccc(F)cc1)c1cc(C)c(NC(=O)OC)c(C)c1 in your answer.
Result: < 1.5

----------
- Protocol details: Clearance in Kunming mouse plasma at 2 mg/kg, iv measured upto 24 hrs by LC-MS/MS method
- Format: ADME, organism-based
Recorded endpoint: clearance (mL/min/kg)
Numbers only, in mL/min/kg.

Ask: Give reported clearance value for C#CCN(Cc1ccc(F)cc1)c1cc(C)c(NC(=O)OC)c(C)c1
Result: 61.3

----------
- Protocol details: Half life in Kunming mouse plasma at 5 mg/kg, po measured upto 24 hrs by LC-MS/MS method
- Type: ADME, organism-based
Recorded endpoint: half-life (h)
Answers are plain numbers, in h.

Ask: Indicate the recorded half-life value for this molecule: C#CCN(Cc1ccc(F)cc1)c1cc(C)c(NC(=O)OC)c(C)c1
Result: 1.95

----------
- Protocol details: Metabolic stability in monkey liver microsomes assessed as intrinsic clearance
- Format: ADME, Macaca mulatta, Microsome
- Assay conditions: rhesus monkey, read-out: CLH
Recorded endpoint: CLint scaled (mL/min/kg)
Give bare numbers, in mL/min/kg.

Ask: Return value of CLint scaled for input C#CCN(Cc1ccc(F)cc1)c1cc(C)c(NC(=O)OC)c(C)c1 , no commentary.
Result: 112

----------
- Protocol details: Ratio of AUC(0 to t) in Kunming mouse brain to plasma at 5 mg/kg, po measured upto 24 hrs by LC-MS/MS method
- Assay type: ADME, organism-based
- Assay conditions: brain and plasma
Recorded endpoint: Kp at 24 h
Answers are plain numbers.

Ask: Give the value of Kp at 24 h reported for the following: C#CCN(Cc1ccc(F)cc1)c1cc(C)c(NC(=O)OC)c(C)c1
Result: 2.23

----------
- Protocol details: Tmax in Kunming mouse plasma at 5 mg/kg, po measured upto 24 hrs by LC-MS/MS method
- Type: ADME, organism-based
Recorded endpoint: Tmax
State the result as a value with its unit after it.

Ask: Identify the reported Tmax for the following entry. C#CCN(Cc1ccc(F)cc1)c1cc(C)c(NC(=O)OC)c(C)c1
Result: 15 min

----------
- Protocol details: Tmax in Sprague-Dawley rat brain at 6 mg/kg, po measured upto 24 hrs by LC-MS/MS method
- Format: ADME, organism-based
Recorded endpoint: Tmax (min)
Give bare numbers, in min.

Ask: Determine its reported Tmax: C#CCN(Cc1ccc(F)cc1)c1cc(C)c(NC(=O)OC)c(C)c1
Result: 15

----------
- Protocol details: Tmax in Sprague-Dawley rat at 20 mg/kg, po measured upto 24 hrs by LC-MS/MS method
- Assay type: ADME, organism-based
- Assay conditions: in vivo
Recorded endpoint: Tmax (h)
Give bare numbers, in h.

Ask: Give Tmax for C#CCN(Cc1ccc(F)cc1)c1cc(C)c(NC(=O)OC)c(C)c1
Result: 3.67

----------
- Protocol details: Metabolic stability in rat liver microsomes assessed as half life
- Type: ADME, Microsome
Recorded endpoint: half-life (min)
Give bare numbers, in min.

Ask: Give me measured half-life, please, for this compound: C#CCN(Cc1ccc(F)cc1)c1cc(C)c(NC(=O)OC)c(C)c1
Result: 23.7

----------
- Target or system: CYP2C19 (Homo sapiens, UniProt P33261)
- Sequence (P33261 whole entry): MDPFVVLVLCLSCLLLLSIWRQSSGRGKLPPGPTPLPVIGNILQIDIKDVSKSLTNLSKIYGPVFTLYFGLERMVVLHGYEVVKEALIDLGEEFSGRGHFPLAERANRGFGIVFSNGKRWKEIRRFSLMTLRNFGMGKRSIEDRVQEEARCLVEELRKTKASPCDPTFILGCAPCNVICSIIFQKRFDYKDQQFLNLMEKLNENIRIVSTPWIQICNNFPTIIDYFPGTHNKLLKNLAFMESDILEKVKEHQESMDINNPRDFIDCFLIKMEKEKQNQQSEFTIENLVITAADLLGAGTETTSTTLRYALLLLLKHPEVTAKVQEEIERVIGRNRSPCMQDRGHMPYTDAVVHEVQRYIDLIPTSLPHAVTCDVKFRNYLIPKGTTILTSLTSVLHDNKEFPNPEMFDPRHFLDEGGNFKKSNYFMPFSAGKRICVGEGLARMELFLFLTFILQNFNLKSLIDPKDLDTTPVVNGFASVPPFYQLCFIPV
- Protocol details: Inhibition of human liver microsome CYP2C19 at 0.10 to 50 uM preincubated with NADPH for 0.5 hrs followed by substrate addition by LC-MS/MS method relative to control
- Type: ADME
- Assay conditions: liver microsomes, dose 0.1-50 µM
Recorded endpoint: inhibition at 0.5 h, up to 50 µM

Ask: Identify the reported inhibition at 0.5 h, up to 50 µM for the following entry. C#CCN(Cc1ccc(F)cc1)c1cc(C)c(NC(=O)OC)c(C)c1
Result: < 25%

----------
- Protocol details: Drug concentration in Kunming mouse plasma at 5 mg/kg
- Type: ADME, organism-based
- Assay conditions: in vivo
Recorded endpoint: concentration (nM)
Give bare numbers, in nM.

Ask: Name the recorded concentration of the compound listed here: C#CCN(Cc1ccc(F)cc1)c1cc(C)c(NC(=O)OC)c(C)c1
Result: 110

----------
- Target or system: Potassium voltage-gated channel subfamily KQT member 2 (Rattus norvegicus)
- Protocol details: Agonist activity at rat Kv7.2 channel expressed in CHO cells assessed as shift of half voltage of maximal activation at 10 uM by whole cell patch clamp based electrophysiological method
- Assay conditions: filed as agonist
Recorded endpoint: Activity (mV)
One number for each entry, in mV.

C#CCN(Cc1ccccc1Cl)c1ccc(NC(=O)OC)cc1: -16.5
C#CCN(Cc1ccc(Br)cc1)c1ccc(NC(=O)OC)cc1: -25.1
C#CCN(Cc1cccc(OC)c1)c1ccc(NC(=O)OC)cc1: -12.5
C#CCN(Cc1ccc(F)c(F)c1)c1ccc(NC(=O)OC)cc1: -14.9
C#CCN(Cc1ccc(F)c(C(F)(F)F)c1)c1ccc(NC(=O)OC)cc1: -15.6
C#CCN(Cc1ccc(F)cc1)c1ccc(NC(=O)OC)c(F)c1: -22
C#CCN(Cc1ccc(F)cc1)c1cc(C)c(NC(=O)OC)c(C)c1: -38.5
CCOC(=O)Nc1ccc(NCc2ccc(F)cc2)cc1N [EZOGABINE]: -33.2

Ask: In one line, give reported Activity of the entry C#CCN(Cc1ccc(F)cc1)c1ccc(NC(=O)OC)cc1 .
Result: -24.2

----------
Give pEC50 for every item shown.
- Target or system: Potassium voltage-gated channel subfamily KQT member 2/member 3 (Rattus norvegicus, UniProt O88943+O88944)
- Sequence (O88943 whole entry): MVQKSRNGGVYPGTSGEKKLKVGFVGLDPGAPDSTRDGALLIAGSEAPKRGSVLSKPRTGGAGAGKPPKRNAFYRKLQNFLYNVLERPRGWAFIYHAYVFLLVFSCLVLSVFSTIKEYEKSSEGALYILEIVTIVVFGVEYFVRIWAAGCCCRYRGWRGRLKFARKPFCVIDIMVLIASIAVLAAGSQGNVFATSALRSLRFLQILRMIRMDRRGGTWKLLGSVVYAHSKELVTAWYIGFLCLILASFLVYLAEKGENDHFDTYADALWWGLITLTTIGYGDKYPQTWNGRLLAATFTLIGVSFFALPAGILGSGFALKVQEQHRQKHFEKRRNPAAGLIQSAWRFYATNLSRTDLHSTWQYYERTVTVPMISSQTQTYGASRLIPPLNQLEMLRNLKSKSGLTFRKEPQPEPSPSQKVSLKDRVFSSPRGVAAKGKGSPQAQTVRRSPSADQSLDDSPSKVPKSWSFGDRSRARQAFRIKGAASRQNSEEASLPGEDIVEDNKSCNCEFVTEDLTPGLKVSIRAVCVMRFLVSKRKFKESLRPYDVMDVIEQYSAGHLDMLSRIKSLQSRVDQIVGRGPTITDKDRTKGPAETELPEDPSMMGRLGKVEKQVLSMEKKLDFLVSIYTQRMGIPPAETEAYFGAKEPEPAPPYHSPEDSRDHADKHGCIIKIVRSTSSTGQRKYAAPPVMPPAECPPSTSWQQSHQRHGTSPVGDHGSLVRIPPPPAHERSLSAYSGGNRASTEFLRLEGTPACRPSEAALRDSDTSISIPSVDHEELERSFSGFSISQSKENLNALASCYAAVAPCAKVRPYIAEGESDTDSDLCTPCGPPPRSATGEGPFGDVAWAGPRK
- Sequence (O88944 whole entry): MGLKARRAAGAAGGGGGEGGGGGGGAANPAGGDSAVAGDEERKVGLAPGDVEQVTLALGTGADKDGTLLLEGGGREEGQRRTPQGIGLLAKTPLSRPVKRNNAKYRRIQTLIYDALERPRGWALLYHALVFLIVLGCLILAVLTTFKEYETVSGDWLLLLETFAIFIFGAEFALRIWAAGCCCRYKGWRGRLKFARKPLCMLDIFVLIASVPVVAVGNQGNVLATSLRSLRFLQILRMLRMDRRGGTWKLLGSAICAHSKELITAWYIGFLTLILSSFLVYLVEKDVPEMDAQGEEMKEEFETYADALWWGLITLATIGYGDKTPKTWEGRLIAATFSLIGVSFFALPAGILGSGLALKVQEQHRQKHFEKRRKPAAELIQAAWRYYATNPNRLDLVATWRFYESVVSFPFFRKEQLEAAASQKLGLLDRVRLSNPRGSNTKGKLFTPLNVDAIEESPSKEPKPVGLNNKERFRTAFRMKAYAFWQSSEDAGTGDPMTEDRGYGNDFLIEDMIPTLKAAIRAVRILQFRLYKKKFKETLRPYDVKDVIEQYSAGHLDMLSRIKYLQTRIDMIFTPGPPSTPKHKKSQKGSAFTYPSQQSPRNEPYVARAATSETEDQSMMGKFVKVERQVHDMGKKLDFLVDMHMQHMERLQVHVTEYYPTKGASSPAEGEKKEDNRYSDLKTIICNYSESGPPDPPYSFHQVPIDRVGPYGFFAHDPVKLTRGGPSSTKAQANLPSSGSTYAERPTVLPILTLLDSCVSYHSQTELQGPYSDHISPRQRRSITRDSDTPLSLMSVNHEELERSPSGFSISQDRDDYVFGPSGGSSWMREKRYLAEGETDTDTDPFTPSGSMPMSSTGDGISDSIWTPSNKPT
- Protocol details: Agonist activity at rat KCNQ2/3 channel expressed in CHO cells by patch clamp method
Answers are plain numbers, as −log10 of the molar value.

C#CCN(Cc1ccc(F)cc1)c1cc(C)c(NC(=O)OC)c(C)c1: 7.48

Ask: Identify measured pEC50 corresponding to CCOC(=O)Nc1ccc(NCc2ccc(F)cc2)cc1N
Result: 5.38
